biological target: Transferrin receptor 1 (TfR1, CD71) (Homo sapiens, UniProt P02786 SEQ:89-760); assay: BLI; 25 C, 5.5 mM Mg, 1:1 fit; details: tags: biotinylated, ACROBiosystems TfR-H82E5, immobilized on streptavidin biosensor; chain copies: 2; label: 5'-FAM or 5'-Cy5; multi-hairpin with extended stem
Sequence (P02786 89-760): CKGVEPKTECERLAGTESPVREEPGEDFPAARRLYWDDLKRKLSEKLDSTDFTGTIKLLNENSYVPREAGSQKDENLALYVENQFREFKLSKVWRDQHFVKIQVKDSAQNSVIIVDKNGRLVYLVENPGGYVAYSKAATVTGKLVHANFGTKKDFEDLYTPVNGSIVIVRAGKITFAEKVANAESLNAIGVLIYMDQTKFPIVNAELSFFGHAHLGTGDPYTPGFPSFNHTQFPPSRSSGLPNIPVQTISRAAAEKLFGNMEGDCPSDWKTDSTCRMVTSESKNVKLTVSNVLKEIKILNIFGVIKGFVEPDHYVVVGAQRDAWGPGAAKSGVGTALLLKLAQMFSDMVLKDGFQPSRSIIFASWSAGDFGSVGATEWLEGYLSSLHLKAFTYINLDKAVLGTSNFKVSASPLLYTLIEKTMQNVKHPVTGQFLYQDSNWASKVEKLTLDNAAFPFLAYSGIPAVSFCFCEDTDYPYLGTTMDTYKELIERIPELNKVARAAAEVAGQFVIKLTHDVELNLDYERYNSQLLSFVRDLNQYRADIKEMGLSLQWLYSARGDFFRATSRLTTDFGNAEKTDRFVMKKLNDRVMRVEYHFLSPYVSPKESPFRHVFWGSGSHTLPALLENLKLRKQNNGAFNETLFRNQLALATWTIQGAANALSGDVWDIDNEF
ASSAY_ENDPOINT: Kd (nM)
Hi! Could you send only the number? It should be in nM, unit omitted.

Any idea what its Kd is? The binder is JBA8.26 (ssDNA) DNA: ATCCAGAGTGACGCAGCAGCGTAAAGGGGGTGTTTGTGCGGTGTGGAGTGCGCGCGCTGCTGCTGGACACGGTGGCTTAGT
6.87
